System: Wolbachia pipientis
assay method text: Anti-Wolbachia Cell-Based Screen
Assay type: functional
Set-up: scale not given: in the data most compounds retested in dose-response had high values
measurement setup: 5 µM
The whole screen tested about 48,000 compounds, of which about 13,000 (27%) showed an effect of 50% or more. The list shows a part of the results.
experimental endpoint: Percent Effect
Please report the result as a number followed by the unit.

Recorded result, COc1ccccc1-c1cc(NC(=O)CCS(=O)(=O)C2CCCC2)[nH]n1 , Percent Effect: 7.035%

Percent Effect reported for this molecule Cc1cnn(CCNCCCOc2ccc(C#N)cc2)c1 : 4.876%

So for O=C(c1ccno1)N1CCC2(CC(=O)N(c3ccc4c(c3)OCO4)C2)C1 (stereo not drawn) , the logged Percent Effect turned out to be -9.598%

Summary for this molecule, CCS(=O)(=O)CC(=O)NCC1(c2c(F)cccc2F)CCCC1 : Percent Effect is -2.417%

// Percent Effect value for O=C(COCC1CC1)Nc1cc(-c2ccc(Br)s2)n[nH]1 : -5.562%

Noted for CS(=O)(=O)NCC(=O)N[C@H]1CN(CC2CC2)C[C@@H]1c1ccccc1 : its Percent Effect reads 5.176%

Quick note, Percent Effect for Cc1noc(C)c1CN(C)C(=O)NC1CCN(c2ncccn2)CC1 landed at -8.201%

So, COC(=O)C(NC(=O)C1CCC1)c1cc(F)ccc1F (stereo not drawn) ? Its Percent Effect was 101.8%

What the record says about COCCN1CCCn2cnc(CNC3CCCC3)c2C1.Cl.Cl : Percent Effect is -22.39%

For this molecule ( COc1ccc(COCC(O)CNC(=O)c2cccnc2)cc1 (stereo not drawn) ), measured Percent Effect is 15.02%

Noted for CCn1nc(C)c(CNCCn2cc(C)cn2)c1C : its Percent Effect reads -3.614%

Percent Effect reported for this molecule COc1ccc(CN(C)[C@@H]2CN(C(=O)c3cccnc3)C[C@H]2O)cc1 : 87.24%

// Percent Effect value for COc1ccc(CN(C)[C@@H]2CN(C(=O)c3ccccc3)C[C@H]2O)cc1 : 114.6%

For reference, reported Percent Effect for CCc1nnc2n1CCN(CC(=O)Nc1sccc1C#N)C2 stands at 8.043%

For this molecule ( COc1ccccc1-c1cc(NC(=O)COCC2CC2)[nH]n1 ), measured Percent Effect is 4.73%

The value of Percent Effect measured for the molecule CN(C)Cc1nnc(C2CCN(c3nccc(N)n3)CC2)n1C1CC1 turned out to be 9.294%

Form: molecule = N#Cc1cccnc1Nc1ccc(N2CCC(C(N)=O)CC2)cc1 ; Percent Effect = -22.12%

The molecule identified as CS(=O)(=O)CCCC(=O)Nc1cc(Cl)c(Cl)cn1 registered its Percent Effect at 1.598%

Reported Percent Effect for CC(C)c1nnc2n1CCN(CC(=O)Nc1nncs1)C2 was 3.103%

get_value(item= CN1CCC(N(Cc2ccco2)S(=O)(=O)c2ccc(Br)cc2Cl)CC1 , readout=Percent Effect) returns 36.62%

Sample CC(C)[C@H]1COC(=O)N1Cc1noc(-c2ccccc2)n1 ; Percent Effect observed: -3.7%

CCOCC(=O)Nc1cc(-c2cccc(F)c2F)n[nH]1 yielded Percent Effect of 91.5%

Briefly, Percent Effect measured for O=C(CNC(=O)C1CC1)NCC(F)(F)F : -16.51%

Lab note: CCc1nnc2n1CCN(CCC(=O)Nc1sccc1C#N)C2 gave Percent Effect of 88.78%

Sure, the documented Percent Effect for CN(C)CCOCC1CN(C(=O)c2cccnc2)Cc2ccnn2C1 (stereo not drawn) is -7.083%

For this molecule ( CC(=O)Nc1cc(-c2cccc(F)c2F)n[nH]1 ), measured Percent Effect is 88.91%

Entry under test: CCc1nnc2n1CCN(CCC(=O)Nc1cc(C)on1)C2 . Its Percent Effect was -8.821%

CC(C)=CCN1C[C@H]2CC[C@@H]1CN(C(=O)CCc1n[nH]c(C)n1)C2 has a reported Percent Effect of -19.43%

###

System: Wolbachia pipientis
assay method text: Anti-Wolbachia Cell-Based Screen
Type: functional
Set-up: scale not given: in the data most compounds retested in dose-response had high values
measurement setup: 5 µM
Screen size: about 48,000 compounds; about 13,000 (27%) showed an effect of 50% or more. The list shows a part of the results.
experimental endpoint: Percent Effect (%)
Express your answer in %, writing the number without its unit.

Note to self: Percent Effect recorded for Cc1nc(NC2CCCC2)cc(C2CCN2c2ncccn2)n1 (stereo not given) was 84.97

For reference, reported Percent Effect for CC(NC(=O)N(C)Cc1ccsc1)c1nncn1C (stereo not given) stands at -12.05

Given item CSCCCN1CCc2nc(N(C)C)nc(N3CCC(O)CC3)c2C1 , the value recorded as its Percent Effect is 3.21

// Percent Effect value for CC(C)CCN1CCCC12Cc1ccccc1CNC2=O (stereo not given) : 106.1

Measured Percent Effect of CCN(Cc1ccc2c(c1)OCCO2)C(=O)NCc1cc[nH]n1 : -1.226

Notebook: Cc1cc(NCC(=O)N(C)C(C)c2cccs2)c(C(N)=O)cc1F (stereo not given) , Percent Effect read as -3.325

The reported value for CC(C)Oc1cccc(C(=O)C2CCCN(C(=O)c3ncn[nH]3)C2)c1 (stereo not given) in terms of Percent Effect is -4.294

// field: Percent Effect; key: CC1c2ncc(CNC(=O)C3CC3)n2CCN1Cc1ccsc1.O=C(O)C(F)(F)F (stereo not given) ; value = 96.09

What the record says about CSc1ncc(CNCC2(N3CCCCC3)Cc3ccccc3C2)cn1 : Percent Effect is -2.025

Entry Cn1cc(C2(C)CN(Cc3ccc(N4CCCC4)nc3)CCO2)cn1 (stereo not given) , Percent Effect reported as -5.624

molecule Cc1noc(C)c1CN1CCC[C@]2(C[C@@H](Oc3ccccn3)CO2)C1.O=C(O)C(F)(F)F.O=C(O)C(F)(F)F , Percent Effect observed: -19.05

Sample Cc1ncsc1CN1CCn2c(COCC3CC3)cnc2C1C.O=C(O)C(F)(F)F (stereo not given) ; Percent Effect observed: 6.232

Consider COc1ccc(CN2CCC=C(C(C)NC(C)=O)C2)cc1 (stereo not given) . Its measured Percent Effect is -15.58

Notebook: COCCc1noc(CN2CCCc3cccc(OC)c32)n1 , Percent Effect read as 0.4274

Just so you know, measured Percent Effect for CCN(Cc1ccc2c(c1)OCCO2)C(=O)NCc1nncn1CC came out at 99.19

Form field Percent Effect, entry CCCN1C[C@H]2CC[C@@H]1CN(C(=O)c1ccc(N(C)CCO)cc1)C2 : -0.2946

The recorded Percent Effect for CC(NC1(CNS(C)(=O)=O)CCCC1)c1ccccc1 (stereo not given) is -3.236

Given item CN(C1CCc2ccccc2C1)S(C)(=O)=O (stereo not given) , the value recorded as its Percent Effect is -5.064

The recorded Percent Effect for entry O=C(COc1ccccc1)N1CCC[C@]2(C[C@@H](OCC3CC3)CO2)C1 equals 18.43

Reported Percent Effect ( CCN(Cc1cccc(NC(=O)COCCOC)c1)C(C)=O ) = -8.699

For reference, reported Percent Effect for N#Cc1cccc(CN2CCn3cc(CNC(=O)C4CCC4)nc3C2)c1 stands at -7.661

Per the records, this molecule ( CCCc1nc(N(C)CCN2CCCCCC2)c2cnn(C)c2n1 ) has Percent Effect equal to 11.67

Data point: COCc1cccc(NC(C(N)=O)c2ccc(Br)cc2)c1 (stereo not given) ; Percent Effect = 31.5

// Percent Effect value for CNc1nc(C(=O)N2CCCN(c3ccnc(C)c3)CC2)cs1 : 103.6

Summary for this molecule, COCC1Cn2nnc(-c3cnn(C)c3)c2CN1Cc1ccc(C)s1.O=C(O)C(F)(F)F (stereo not given) : Percent Effect is -9.357

###

Please respond with reported Percent Effect for every item in the list.
System: Wolbachia pipientis
assay method text: Anti-Wolbachia Cell-Based Screen
Assay type: functional
Set-up: scale not given: in the data most compounds retested in dose-response had high values
measurement setup: 5 µM
Screen size: about 48,000 compounds; about 13,000 (27%) showed an effect of 50% or more. Some of the results follow.
Put your answer as a value accompanied by its unit after it.

Recorded Percent Effect (compound CS(=O)(=O)NC1CCN(C(=O)CCn2cccn2)CC1 ): -7.028%

Percent Effect in this record for CN1C(=O)CC(C(=O)O)C12CCN(Cc1ccc(Cl)cc1F)CC2 (stereo not drawn) : 5.202%

Per the record, Cc1scc(C(=O)N2CCC3(CC(=O)NC3=O)C2)c1-c1ccccc1 (stereo not drawn) has Percent Effect of -14.34%

The reported Percent Effect of the compound O=C(Cn1cccn1)N1CCC(c2nnc(C(F)(F)F)o2)CC1 was 121.4%

Form: compound = O=C(O)CC1COCCN1C(=O)C1(c2ccc(Cl)cc2)CCC1 (stereo not drawn) ; Percent Effect = 14.34%

Entry O=C(CC1CCCC1)N1CCC(c2nnc(-c3ccccn3)o2)CC1 , Percent Effect reported as 116.1%

# Percent Effect (compound: O=C(c1ccccn1)N1CCCN(Cc2nnc(C3CC3)o2)CC1 ) is -3.394%

Please fill in: Percent Effect reported for CO[C@@H]1CO[C@@]2(CCCN(C(=O)C3CC=CC3)C2)C1 = 95.67%

These data points were gathered from ChEMBL document CHEMBL3988442.
